Biological target: human TGR5 (Homo sapiens, UniProt Q8TDU6)
Construct: expressed in transfected cells; host or cells: HEK293
Assay: Cell-based TGR5 assay (cAMP generation, HTRF)
Conditions: HEK293 cells stably transfected with human TGR5; cAMP by HTRF; 30 minutes at 37° C.; read-out: pEC50 Human TGR5 (converted)
Would you mind telling me the reported EC50 of each entry?

// query What measured EC50 goes with O=C(NC[C@H](O)[C@@H](O)[C@H](O)[C@H](O)CO)N[C@H]1CC[C@H](NS(=O)(=O)c2ccc(Cl)c(COC3(c4cnccc4-c4ccccc4OC4CC4)CC3)c2)CC1 [Compound I-418] ?
// result < 100 nM

// query Same for O=C(NCCCCSc1ccc(Cl)c(COC2(c3cnccc3-c3ccccc3OC3CC3)CC2)c1)N[C@H]1CC[C@H](NC(=O)NC[C@H](O)[C@@H](O)[C@H](O)[C@H](O)CO)CC1 [Compound I-632]
// result < 100 nM

// query Same for CCS(=O)(=O)CCN(CCCC(C)c1ccc(Cl)c(CNC2(c3cnccc3-c3ccccc3OC3CC3)CC2)c1)C(=O)[C@@H](O)[C@@H](O)[C@H](O)[C@@H](O)CO (stereo partly drawn) [Compound I-293]
// result < 100 nM

// query Same for CC(CCCC(=O)N1CCC(NC[C@H](O)[C@@H](O)[C@H](O)[C@H](O)C(=O)O)CC1)c1ccc(Cl)c(CNC2(c3cnccc3-c3ccccc3OC3CC3)CC2)c1 (stereo partly drawn) [Compound I-318]
// result < 100 nM

// query Same for C[C@@H](CCCCC(=O)N(C)C[C@H](O)[C@@H](O)[C@H](O)[C@H](O)CO)c1ccc(Cl)c(CNC2(c3cnccc3-c3ccccc3OC3CC3)CC2)c1 (single isomer, unassigned) [Compound I-328]
// result < 100 nM

// query Same for CC(CCCCC(=O)N(C)C[C@H](O)[C@@H](O)[C@H](O)[C@H](O)CO)c1ccc(Cl)c(CNC2(c3cnccc3-c3ccccc3OC3CC3)CC2)c1 (stereo partly drawn) [Compound I-330]
// result < 100 nM

// query Same for Cc1cc(COC2(c3cnccc3-c3ccccc3OC3CC3)CC2)c(Cl)cc1CCCCNC(=O)N[C@@H](CO)[C@@H](O)[C@H](O)[C@H](O)CO [Compound I-95]
// result < 100 nM

// query Same for CCN(CCCCc1cc(Cl)c(COC2(c3cnccc3-c3ccccc3OC3CC3)CC2)cc1Cl)C(=O)[C@@H](O)[C@@H](O)[C@H](O)[C@@H](O)CO (stereo in doubt) [Compound I-209]
// result < 100 nM

// query Same for Clc1ccc(Cl)c(COC2(c3cnccc3-c3ccccc3OC3CC3)CCCC2)c1 [Compound I-742]
// result 126 to 1000 nM

// query Same for CN(CCCCNC(=O)N[C@@H](CO)[C@@H](O)[C@H](O)[C@H](O)CO)S(=O)(=O)c1cc(CNC2(c3cnccc3-c3ccccc3OC3CC3)CC2)c(Cl)cc1F [Compound I-475]
// result < 100 nM

// query Same for Cc1ccc(SCCCCN(CCCCO)C(=O)[C@@H](O)[C@@H](O)[C@H](O)[C@@H](O)CO)cc1CNC1(c2cnccc2-c2ccccc2OC2CC2)CC1 [Compound I-550]
// result 126 to 1000 nM

// query Same for O=C(NCCCCOc1ccc(Cl)c(COC2(c3cnccc3-c3ccccc3OC3CC3)CC2)c1)NC[C@H](O)[C@@H](O)[C@H](O)[C@H](O)CO [Compound I-755]
// result 126 to 1000 nM

// query Same for O=C(NCCN1CCN(S(=O)(=O)c2ccc(Cl)c(COC3(c4cnccc4-c4ccccc4OC4CC4)CC3)c2)CC1)NC[C@H](O)[C@@H](O)[C@H](O)[C@H](O)CO [Compound I-425]
// result 126 to 1000 nM

// query Same for Cc1ccc(SCCCCN(C(=O)[C@@H](O)[C@@H](O)[C@H](O)[C@@H](O)CO)C2CCOCC2)cc1COC1(c2cnccc2-c2ccccc2OC2CC2)CC1 [Compound I-562]
// result 126 to 1000 nM

// query Same for Cc1cc(COC2(c3cnccc3-c3ccccc3OC3CC3)CC2)c(Cl)cc1CCCCNC(=O)N[C@@H](C(=O)O)[C@@H](O)[C@H](O)[C@H](O)CO [Compound I-106]
// result < 100 nM

// query Same for O=C([C@@H](O)[C@@H](O)[C@H](O)[C@@H](O)CO)N(CCCCSc1ccc(Cl)c(COC2(c3cnccc3-c3ccccc3OC3CC3)CC2)c1)CCOCCO [Compound I-512]
// result < 100 nM

// query Same for O=C(NCC1CCCN(S(=O)(=O)c2ccc(Cl)c(COC3(c4cnccc4-c4ccccc4OC4CC4)CC3)c2)C1)NC[C@H](O)[C@@H](O)[C@H](O)[C@H](O)CO (stereo in doubt) [Compound I-426]
// result < 100 nM

// query Same for CS(=O)(=O)CCN(CCCCCc1cc(Cl)c(COC2(c3cnccc3-c3ccccc3OC3CC3)CC2)cc1Cl)C(=O)[C@@H](O)[C@@H](O)[C@H](O)[C@@H](O)CO (stereo in doubt) [Compound I-226]
// result < 100 nM

// query Same for CC(CCCN(CCCCO)C(=O)[C@@H](O)[C@@H](O)[C@H](O)[C@@H](O)CO)c1ccc(Cl)c(CNC2(c3cnccc3-c3ccccc3OC3CC3)CC2)c1 (stereo partly drawn) [Compound I-283]
// result < 100 nM

// query Same for CN(CCOCCNC(=O)NC[C@H](O)[C@@H](O)[C@H](O)[C@H](O)CO)S(=O)(=O)c1ccc(Cl)c(COC2(c3cnccc3-c3ccccc3OC3CC3)CC2)c1 (stereo in doubt) [Compound I-404]
// result < 100 nM

// query Same for C[C@H](CCCC(=O)O)c1ccc(Cl)c(CNC2(c3cnccc3-c3ccccc3OC3CC3)CC2)c1 (single isomer, unassigned) [Compound I-247]
// result < 100 nM

---

Biological target: human TGR5 (Homo sapiens, UniProt Q8TDU6)
Construct: expressed in transfected cells; host or cells: HEK293
Sequence (Q8TDU6 1-330): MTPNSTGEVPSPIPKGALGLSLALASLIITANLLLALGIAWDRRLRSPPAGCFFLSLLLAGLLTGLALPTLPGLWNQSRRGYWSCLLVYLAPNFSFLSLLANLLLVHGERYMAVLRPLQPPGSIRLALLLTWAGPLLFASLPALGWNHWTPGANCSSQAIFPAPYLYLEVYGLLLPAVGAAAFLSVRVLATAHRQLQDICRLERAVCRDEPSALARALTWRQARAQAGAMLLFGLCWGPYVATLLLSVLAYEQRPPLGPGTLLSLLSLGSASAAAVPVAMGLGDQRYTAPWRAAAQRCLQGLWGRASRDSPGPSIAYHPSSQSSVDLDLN
Assay: Cell-based TGR5 assay (cAMP generation, HTRF)
Details: HEK293 cells stably transfected with human TGR5; cAMP by HTRF; 30 minutes at 37° C.; read-out: pEC50 Human TGR5 (converted)
Would you mind telling me the reported EC50 of each entry?

// query Find the measured EC50: item CC(C)N(CCCCNC(=O)NC[C@H](O)[C@@H](O)[C@H](O)[C@H](O)CO)S(=O)(=O)c1ccc(Cl)c(COC2(c3cnccc3-c3ccccc3OC3CC3)CCC2)c1 [Compound I-747] , target or system human TGR5 (Homo sapiens, UniProt Q8TDU6).
// result < 0.1 µM

// query Same for O=C(CN1CCC(NC(=O)NCCCCCSc2ccc(Cl)c(COC3(c4cnccc4-c4ccccc4OC4CC4)CC3)c2)CC1)NC[C@H](O)[C@@H](O)[C@H](O)[C@H](O)CO [Compound I-631]
// result < 0.1 µM

// query Same for CCOC(=O)NCCCN(CCCCSc1ccc(Cl)c(COC2(c3cnccc3-c3ccccc3OC3CC3)CC2)c1)C(=O)[C@@H](O)[C@@H](O)[C@H](O)[C@@H](O)CO [Compound I-578]
// result < 0.1 µM

// query Same for O=C(CCCSc1ccc(Cl)c(COC2(c3cnccc3-c3ccccc3OC3CC3)CC2)c1)N(CCCCCO)C[C@H](O)[C@@H](O)[C@H](O)[C@H](O)CO [Compound I-684]
// result 0.126 to 1 µM

// query Same for CN(CCCCNC(=O)NC[C@H](O)[C@@H](O)[C@H](O)[C@H](O)CO)S(=O)(=O)c1ccc(Cl)c(COC2(c3cnccc3-c3ccccc3OC3CC3)CC2)c1 (stereo in doubt) [Compound I-402]
// result < 0.1 µM

// query Same for CC(=O)N1CCCN(S(=O)(=O)c2ccc(Cl)c(COC3(c4cnccc4-c4ccccc4OC4CC4)CC3)c2)CC1 [Compound I-732]
// result < 0.1 µM

// query Same for O=C(CCCCCNS(=O)(=O)c1ccc(Cl)c(COC2(c3cnccc3-c3ccccc3OC3CC3)CC2)c1)NC[C@H](O)[C@@H](O)[C@H](O)[C@H](O)CO [Compound I-431]
// result < 0.1 µM

// query Same for CCS(=O)(=O)CCN(CCCCCc1cc(Cl)c(COC2(c3cnccc3-c3ccccc3OC3CC3)CC2)cc1Cl)C(=O)[C@@H](O)[C@@H](O)[C@H](O)[C@@H](O)CO (stereo in doubt) [Compound I-227]
// result < 0.1 µM

// query Same for Cc1ccc(CCCCNC(=O)NC[C@H](O)[C@@H](O)[C@H](O)[C@H](O)CO)cc1CNC1(c2cnccc2-c2ccccc2OC2CC2)CC1 [Compound I-240]
// result < 0.1 µM

// query Same for C[C@@H](CCCCNC(=O)N[C@@H](CO)[C@@H](O)[C@H](O)[C@H](O)CO)c1ccc(Cl)c(COC2(c3cnccc3-c3ccccc3OC3CC3)CC2)c1 [Compound I-263]
// result < 0.1 µM

// query Same for O=C(NC[C@H](O)[C@@H](O)[C@H](O)[C@H](O)CO)NC1CC2(CCN(S(=O)(=O)c3ccc(Cl)c(COC4(c5cnccc5-c5ccccc5OC5CC5)CC4)c3)CC2)C1 [Compound I-428]
// result 0.126 to 1 µM
